Measured values drawn from paper PMC9482650 for this set.

- assayed system: NHERF4_1, Q86UT5-2
- Sequence (Q86UT5 other isoform, or with tags, fused parts or gaps): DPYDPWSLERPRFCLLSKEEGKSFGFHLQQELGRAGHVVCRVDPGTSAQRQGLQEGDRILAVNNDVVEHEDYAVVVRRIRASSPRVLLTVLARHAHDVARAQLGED
- procedure details: holdup assay
- Design: key: below the threshold = too weak to quantify, mostly under pKd 3.1 to 4
- settings: plain residues with an end cap or a label only (N-terminal biotin on a linker: ahx)
pKd: recorded values
Respond with the number and no other words.

The binder listed as TVICWPGSLV [LNX2, Q8N448] shows pKd equal to 3.55

Measured pKd of GYDWGPATDL [TJP3, O95049] : 3.72

Entry under test: HNAFLSVTTV [PDZRN4, Q6ZMN7] . Its pKd was 3.69

Input RRRKRKRTYL [HPV49-L2, P36762] . Output pKd: 4.69
